Tested on: Pyricularia oryzae
Assay: Antifungal activity against wild type Magnaporthe oryzae Hoku-1 in rice seedlings assessed as preventive value of rice blast at 5 ug/ml systemic application at 22 to 30 degC by pot test
Assay type: functional
experimental-endpoint: Activity

// solved cases for Activity follow
CCC(C)NC(=O)C1(CC)C(C)C1(Cl)Cl (stereo not given)	<40%
CCC1(C(=O)NCCc2cc(Cl)sc2Cl)C(C)C1(Cl)Cl (stereo not given)	<40%
CCC(NC(=O)C1(CC)C(C)C1(Cl)Cl)c1ccc(Cl)cc1 (stereo not given)	<40%
CCC1(C(=O)NC(C)C2CCC2)C(C)C1(Cl)Cl (stereo not given)	<40%
CCC1(C(=O)NCCc2ccc(C)cc2)C(C)C1(Cl)Cl (stereo not given)	<40%
CCC1(C(=O)NC(C)c2cc(Cl)cs2)C(C)C1(Cl)Cl (stereo not given)	<=40%

Dear colleague, could you please provide Activity for the compounds listed below?
1. CCC1(C(=O)NCCc2ccsc2)C(C)C1(Cl)Cl (stereo not given)
2. CCC1(C(=O)NC(C)C2CCCCCC2)C(C)C1(Cl)Cl (stereo not given)
3. CCC1(C(=O)NC(C)C)C(C)C1(Cl)Cl (stereo not given)
4. CCC1(C(=O)NCCc2ccccc2Cl)C(C)C1(Cl)Cl (stereo not given)
5. CC1C(Cl)(Cl)C1(C)C(=O)NCCc1csc(Cl)c1 (stereo not given)

Result:
["<=40%", "<40%", "<40%", "40%", "40%"]

###

Give measured Activity for each item. Keep answers brief.
System: Pyricularia oryzae
Assay: Antifungal activity against wild type Magnaporthe oryzae Hoku-1 in rice seedlings assessed as preventive value of rice blast at 5 ug/ml systemic application at 22 to 30 degC by pot test
Assay type: functional
One number for each entry, in %.

Previously resolved entries follow.
CCC1(C(=O)NCCc2ccc(Cl)cc2Cl)C(C)C1(Cl)Cl (centres undefined)	40
CCC1(C(=O)NCCc2cc(Cl)c(Cl)s2)C(C)C1(Cl)Cl (centres undefined)	40

Alright, here's another compound for you.
Sample CC(C)C1(C(=O)NCCc2csc(Cl)c2)CC1(Cl)Cl (centres undefined) , system: Pyricularia oryzae. Its Activity is 40
